Overview of recorded pIC50 for various compounds
molecular target: Human recombinant MAOA (Homo sapiens (Human)); experiment: MAOA in vitro activity experiment (MAO-Glo)
Sequence (P21397 whole entry): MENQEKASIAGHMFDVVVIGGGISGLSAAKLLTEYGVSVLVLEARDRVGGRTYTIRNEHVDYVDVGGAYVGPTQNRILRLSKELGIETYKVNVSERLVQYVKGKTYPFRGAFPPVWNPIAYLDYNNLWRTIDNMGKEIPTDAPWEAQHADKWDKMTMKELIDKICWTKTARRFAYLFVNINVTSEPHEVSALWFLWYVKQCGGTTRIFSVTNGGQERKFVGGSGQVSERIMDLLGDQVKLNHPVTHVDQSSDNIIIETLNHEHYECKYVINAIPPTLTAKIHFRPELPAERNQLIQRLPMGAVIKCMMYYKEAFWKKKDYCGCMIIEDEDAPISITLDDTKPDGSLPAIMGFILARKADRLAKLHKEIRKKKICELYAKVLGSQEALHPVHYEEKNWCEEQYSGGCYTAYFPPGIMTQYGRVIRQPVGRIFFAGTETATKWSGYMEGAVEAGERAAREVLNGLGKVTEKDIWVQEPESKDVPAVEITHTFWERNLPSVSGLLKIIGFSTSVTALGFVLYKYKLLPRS
pIC50: −log10 of the molar value.

{"compound": "COc1cccc(S(=O)(=O)N2CCc3cc([C@@H]4C[C@H]4NCC4CCNCC4)ccc32)c1 (relative stereo)", "pIC50": 4.41}
{"compound": "O=S(=O)(c1ccc(-c2ccccc2)cc1)N1CCc2cc([C@@H]3C[C@H]3NCC3CCNCC3)ccc21 (relative stereo)", "pIC50": "< 4.00"}
{"compound": "O=C(O)c1ccc(CN2CCC(CN[C@@H]3C[C@H]3c3ccccc3)CC2)cc1 [GSK2879552, GSK-2879552, reference compound]", "pIC50": "< 4.00"}
{"compound": "CC(C)(C)C(=O)N1CCc2cc([C@@H]3C[C@H]3NCC3CCNCC3)ccc21 (relative stereo)", "pIC50": "< 4.00"}
{"compound": "O=C(OCc1ccccc1)N1CCc2cc([C@@H]3C[C@H]3NCC3CCNCC3)ccc21 (relative stereo)", "pIC50": "< 4.00"}
{"compound": "O=S(=O)(c1cccc(Cl)c1)N1CCc2cc([C@@H]3C[C@H]3NCC3CCNCC3)ccc21 (relative stereo)", "pIC50": 4.13}
{"compound": "CCCS(=O)(=O)N1CCc2cc([C@@H]3C[C@H]3NCC3CCNCC3)ccc21 (relative stereo)", "pIC50": "< 4.00"}
{"compound": "O=S(=O)(c1ccc(C(F)(F)F)cc1)N1CCc2cc([C@@H]3C[C@H]3NCC3CCNCC3)ccc21 (relative stereo)", "pIC50": "< 4.00"}
{"compound": "O=S(=O)(N1CCc2cc([C@@H]3C[C@H]3NCC3CCNCC3)ccc21)C(F)(F)F (relative stereo)", "pIC50": 4.06}
{"compound": "COCCC(=O)N1CCc2cc([C@@H]3C[C@H]3NCC3CCNCC3)ccc21 (relative stereo)", "pIC50": "< 4.00"}
{"compound": "O=S(=O)(c1ccccc1)N1CCc2cc([C@@H]3C[C@H]3NC3CCNCC3)ccc21 (relative stereo)", "pIC50": "< 4.00"}
{"compound": "CCCC(=O)N1CCc2cc([C@@H]3C[C@H]3NCC3CCNCC3)ccc21 (relative stereo)", "pIC50": "< 4.00"}
{"compound": "O=S(=O)(c1cccc(C(F)(F)F)c1)N1CCc2cc([C@@H]3C[C@H]3NCC3CCNCC3)ccc21 (relative stereo)", "pIC50": 4.30}
{"compound": "CCCCC(=O)N1CCc2cc([C@@H]3C[C@H]3NCC3CCNCC3)ccc21 (relative stereo)", "pIC50": "< 4.00"}
{"compound": "O=S(=O)(c1ccccc1)N1CCc2cc([C@@H]3C[C@H]3NCC3CCN(Cc4ccccc4)CC3)ccc21 (relative stereo)", "pIC50": 4.80}
